TARGET OR TEST SYSTEM: human TLR4/MD2/CD14 (Homo sapiens, UniProt O00206+Q9Y6Y9)
Construct: expressed in transfected cells; host or cells: HEK293 (ATCC CRL1573), transient transfection with jetPEI
Sequence (O00206 24-839): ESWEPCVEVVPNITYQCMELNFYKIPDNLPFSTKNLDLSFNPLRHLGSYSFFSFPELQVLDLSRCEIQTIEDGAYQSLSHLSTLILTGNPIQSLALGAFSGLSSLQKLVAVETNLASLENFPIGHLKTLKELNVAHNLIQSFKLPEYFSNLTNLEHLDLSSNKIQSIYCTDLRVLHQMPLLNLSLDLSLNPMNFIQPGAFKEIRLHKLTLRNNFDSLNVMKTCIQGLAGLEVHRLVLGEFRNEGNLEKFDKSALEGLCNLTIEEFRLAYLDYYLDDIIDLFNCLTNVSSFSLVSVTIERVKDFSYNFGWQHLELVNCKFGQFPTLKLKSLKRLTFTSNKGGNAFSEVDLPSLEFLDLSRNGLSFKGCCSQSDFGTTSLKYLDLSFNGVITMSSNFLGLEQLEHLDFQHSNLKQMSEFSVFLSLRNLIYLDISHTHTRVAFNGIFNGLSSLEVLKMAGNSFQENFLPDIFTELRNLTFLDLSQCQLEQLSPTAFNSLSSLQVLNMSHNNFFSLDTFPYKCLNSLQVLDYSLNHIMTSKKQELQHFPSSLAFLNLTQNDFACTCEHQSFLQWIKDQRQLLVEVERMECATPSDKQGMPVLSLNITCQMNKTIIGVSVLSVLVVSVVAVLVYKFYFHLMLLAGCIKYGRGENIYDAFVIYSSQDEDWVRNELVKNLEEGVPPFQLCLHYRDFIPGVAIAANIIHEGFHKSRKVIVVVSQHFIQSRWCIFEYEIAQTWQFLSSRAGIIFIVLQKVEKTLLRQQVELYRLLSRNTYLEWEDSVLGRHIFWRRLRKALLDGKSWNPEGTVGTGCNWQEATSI
Sequence (Q9Y6Y9 19-160): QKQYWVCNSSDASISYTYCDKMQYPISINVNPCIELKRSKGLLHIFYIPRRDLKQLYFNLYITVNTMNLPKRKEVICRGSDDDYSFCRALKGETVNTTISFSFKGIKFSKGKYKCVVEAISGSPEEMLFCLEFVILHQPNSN
ASSAY SUMMARY: Inhibition of LPS-induced NF-κB luciferase reporter in HEK293 cells transfected with human TLR4/MD2/CD14
Format: cell-based
EXPERIMENTAL CONDITIONS: 1 h CL pre-incubation, washed, 6 h LPS
ENDPOINT: inhibition of LPS-induced signaling (LPS dose-response, 0 to 1000 ng/mL), mode of action

- CCCCCCCCCCCCCCCC(=O)OC[C@H](COP(=O)(O)OCC(O)COP(=O)(O)OC[C@@H](COC(=O)CCCCCCCCCCCCCCC)OC(=O)CCCCCCCCCCCCCCC)OC(=O)CCCCCCCCCCCCCCC (stereo partly drawn): did not inhibit
- CCCCCCCCCCCCCCCCCC(=O)OC[C@H](COP(=O)(O)OCC(O)COP(=O)(O)OC[C@@H](COC(=O)CCCCCCCCCCCCCCCCC)OC(=O)CCCCCCCCCCCCCCCCC)OC(=O)CCCCCCCCCCCCCCCCC (stereo partly drawn): did not inhibit

###

TARGET OR TEST SYSTEM: human TLR4/MD2/CD14 (Homo sapiens, UniProt O00206+Q9Y6Y9)
Construct: expressed in transfected cells; host or cells: HEK293 (ATCC CRL1573), transient transfection with jetPEI
ASSAY SUMMARY: Inhibition of LPS-induced NF-κB luciferase reporter in HEK293 cells transfected with human TLR4/MD2/CD14
Assay type: cell-based
EXPERIMENTAL CONDITIONS: approx.; HEK293 human TLR4/MD2/CD14
Experimental: Cells were seeded at 4 × 10^4 cells/mL in 96-well plates (200 μL/well) and transiently transfected 4 days later. […] After treatment supernatants were discarded, cells were washed with PBS and lysed with passive lysis buffer (Promega Cat.N. E1941). […] Firefly and Renilla luciferase activity on cell lysates were normalized, and data were expressed as fold induction as compared to unstimulated conditions. […]
ENDPOINT: IC50

* CCCCCCCCCCCCCC(=O)OC[C@H](COP(=O)(O)OCC(O)COP(=O)(O)OC[C@@H](COC(=O)CCCCCCCCCCCCC)OC(=O)CCCCCCCCCCCCC)OC(=O)CCCCCCCCCCCCC (stereo partly shown) | ~300 µM

###

TARGET OR TEST SYSTEM: human TLR4/MD2/CD14 (Homo sapiens, UniProt O00206+Q9Y6Y9)
Construct: expressed in transfected cells; host or cells: HEK293 (ATCC CRL1573), transient transfection with jetPEI
ASSAY SUMMARY: Inhibition of LPS-induced NF-κB luciferase reporter in HEK293 cells transfected with human TLR4/MD2/CD14
Format: cell-based
EXPERIMENTAL CONDITIONS: HEK293 human TLR4/MD2/CD14
pIC50: −log10 of the molar value.
ENDPOINT: pIC50

* CCCC/C=C\CCCCCCCC(=O)OC[C@H](COP(=O)(O)OCC(O)COP(=O)(O)OC[C@@H](COC(=O)CCCCCCC/C=C\CCCC)OC(=O)CCCCCCC/C=C\CCCC)OC(=O)CCCCCCC/C=C\CCCC (stereo partly shown) | 7.11

###

TARGET OR TEST SYSTEM: human TLR4/MD2/CD14 (Homo sapiens, UniProt O00206+Q9Y6Y9)
Construct: expressed in transfected cells; host or cells: HEK293 (ATCC CRL1573), transient transfection with jetPEI
ASSAY SUMMARY: Inhibition of LPS-induced NF-κB luciferase reporter in HEK293 cells transfected with human TLR4/MD2/CD14
Type: cell-based
EXPERIMENTAL CONDITIONS: HEK293 hTLR4/hMD2/hCD14; 1 h CL, washed, 6 h LPS; Prism fit of Fig. 8 data
pIC50: −log10 of the molar value.
Here the recorded pIC50 is given for each entry.
ENDPOINT: pIC50

* CCCCCCCC/C=C\CCCCCCCC(=O)OC[C@H](COP(=O)(O)OCC(O)COP(=O)(O)OC[C@@H](COC(=O)CCCCCCC/C=C\CCCCCCCC)OC(=O)CCCCCCC/C=C\CCCCCCCC)OC(=O)CCCCCCC/C=C\CCCCCCCC (stereo partly shown) | 4.47
* CCCCCC/C=C\CCCCCCCC(=O)OC[C@H](COP(=O)(O)OCC(O)COP(=O)(O)OC[C@@H](COC(=O)CCCCCCC/C=C\CCCCCC)OC(=O)CCCCCCC/C=C\CCCCCC)OC(=O)CCCCCCC/C=C\CCCCCC (stereo partly shown) | 6.03
* CCCC/C=C\CCCCCCCC(=O)OC[C@H](COP(=O)(O)OCC(O)COP(=O)(O)OC[C@@H](COC(=O)CCCCCCC/C=C\CCCC)OC(=O)CCCCCCC/C=C\CCCC)OC(=O)CCCCCCC/C=C\CCCC (stereo partly shown) | 7.11
